Test system: MKN45 cells
Measurement Description: MKN45 cell proliferation assay (SRB)
Assay type: cell-based
Measurement Setup: Homo sapiens, MKN-45, 72 hours, read-out: IC50 value of MKN45 cell proliferation inhibition
pIC50: −log10 of the molar value.
Catalogue of pIC50 values

Compound: CC(C)n1cc(C(=O)Nc2ccc(Oc3ccnc4[nH]ccc34)c(F)c2)c(=O)n(-c2ccc(F)cc2)c1=O [No. 41]
Tested On: MKN45 cells
Value Measured: > 7.00

Pending compound:
Reported pIC50 of CC(C)n1cc(C(=O)Nc2ccc(Oc3cc4cnn(C)c4cc3-c3cn[nH]c3)c(F)c2)c(=O)n(-c2ccc(F)cc2)c1=O [No. 50] : > 7.00
